Molecular target: Hb (Homo sapiens)
Experiment: Drug partitioning studies, fixed and unfixed Hb adducts in non-sickling AA blood
Assay type: cell-based
Parameters: Hemoglobin modification, studies using non-sickling AA blood; from tissue; host or cells: non-sickling (AA) human blood, red blood cells
Settings: 2 mM, 6 biological replicates
value_type: Unfixed Adduct (%)

O=Cc1c(O)cccc1OCc1cccnc1Cl [Comp 7]: 60.2
COC(=O)c1ccc(COc2cccc(O)c2C=O)cn1 [PP14]: 91.8
COc1ccc(OCc2cccc(CO)n2)c(C=O)c1 [TD-7, reference compound]: 73.5
CC(C)n1nccc1-c1ncccc1COc1cccc(O)c1C=O [Voxelotor, reference compound]: 80.3
O=Cc1c(O)cccc1OCc1ncccc1F [Comp 5]: 95.8
O=Cc1c(O)cccc1OCc1cccc(CO)n1 [VZHE-039, reference compound]: 92.4
O=Cc1c(F)cc(F)cc1OCc1ccccn1 [Comp 9]: 69.4
O=Cc1c(F)cc(F)cc1OCc1ncccc1F [Comp 13]: 78.4
O=Cc1c(O)cccc1OCc1cncc(F)c1 [Comp 4]: 88.8
O=Cc1c(O)cccc1OCc1cccnc1 [Comp 1]: 97.4
O=Cc1c(O)cccc1OCc1cccnc1F [Comp 6]: 67.1
O=Cc1c(OCc2cccnc2)ccc(F)c1O [Comp 12]: 80.8

###

Target: Hb (Homo sapiens, UniProt P69905)
Sequence (P69905 2-142 limits assumed): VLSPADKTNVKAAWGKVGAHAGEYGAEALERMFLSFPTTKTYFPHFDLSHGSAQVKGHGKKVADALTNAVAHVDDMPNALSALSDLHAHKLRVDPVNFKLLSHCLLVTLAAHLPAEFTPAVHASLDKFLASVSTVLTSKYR
Sequence (P68871 2-147 partner limits assumed): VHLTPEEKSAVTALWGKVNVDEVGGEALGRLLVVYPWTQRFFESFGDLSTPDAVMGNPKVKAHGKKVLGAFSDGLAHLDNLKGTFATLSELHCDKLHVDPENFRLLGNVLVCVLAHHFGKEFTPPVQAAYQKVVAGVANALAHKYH
Experiment: Oxygen equilibrium curve (OEC) studies with normal whole blood
Assay type: cell-based
Design: Hemoglobin modification, studies using non-sickling AA blood; from tissue; host or cells: non-sickling (AA) human blood, red blood cells
Settings: normal whole blood, 0.5, 1, 2 mM
value_type: effect on Hb oxygen binding property (OEC)

COC(=O)c1ccnc(COc2ccc(OC)cc2C=O)c1: minimal effect
COC(=O)c1ccc(COc2ccc(OC)cc2C=O)nc1 [PP1]: minimal effect

###

// each record: one item and its pKd for Hb (Homo sapiens)
Entry type: numeric. Quantity: pKd, the -log10 of concentration in molar units.

O=Cc1c(O)cccc1OCc1cccnc1: 4.22

Ask | pKd lookup needed for O=Cc1c(O)cccc1OCc1cccc(CO)n1 [VZHE-039, reference compound] , thanks.
Reply | 4.00
